- Test description: in vivo
- Condition description: male, beagle, dog, po, 10 mg/kg
Measurement label: Tmax

Lab note: COC[C@@H](NC(=O)C1CCCC(F)(F)C1)C(=O)N[C@H](Cc1ccccc1)C(=O)C(=O)NCc1nccs1 (stereo partly shown) gave Tmax of 1 h

----------
- Test description: in vivo
- Condition description: male, beagle, dog, po, 10 mg/kg
Measurement label: Cmax (ng/mL)
One number for each entry, in ng/mL.

Lab note: COC[C@@H](NC(=O)C1CCCC(F)(F)C1)C(=O)N[C@H](Cc1ccccc1)C(=O)C(=O)NCc1nccs1 (stereo partly shown) gave Cmax of 3060

----------
- Test description: in vivo
- Condition description: male, cynomolgus monkey, po, 10 mg/kg
Measurement label: Tmax

Lab note: COC[C@@H](NC(=O)C1CCCC(F)(F)C1)C(=O)N[C@H](Cc1ccccc1)C(=O)C(=O)NCc1nccs1 (stereo partly shown) gave Tmax of 2.33 h
